- procedureText: Plasma pharmacokinetics (LC-MS/MS)
- Type: in vivo, human
- conditions: human, plasma, oral, 800 mg, C1D1, 800 mg QD, n=1; read-out: AUC0-t, Geo-mean
metricName: AUC(0-t)

[[record]]
entrysmiles = "CC1(N)CCN(c2cccnc2NC(=O)c2nc(-c3ncccc3C(F)(F)F)cnc2N)CC1"
metricname = "AUC(0-t)"
result = "54300 ng·h/mL"


---

- procedureText: Plasma pharmacokinetics (LC-MS/MS)
- Type: in vivo, human
- conditions: human, plasma, oral, 200 mg, C1D15, 200 mg QD, n=3; read-out: Cmin, Median (Min, max)
metricName: concentration at 15 day (ng/mL)

[[record]]
compound = "CC1(N)CCN(c2cccnc2NC(=O)c2nc(-c3ncccc3C(F)(F)F)cnc2N)CC1 [LXS196]"
metricname = "concentration at 15 day"
endpointunit = "ng/mL"
number = 149


---

- procedureText: Plasma pharmacokinetics (LC-MS/MS)
- Assay type: in vivo, human
- conditions: human, plasma, oral, 300 mg, C1D1, 300 mg QD, n=15; read-out: AUCinf, Median (Min, max)
metricName: AUC(0-inf) (ng·h/mL)

[[record]]
entrysmiles = "CC1(N)CCN(c2cccnc2NC(=O)c2nc(-c3ncccc3C(F)(F)F)cnc2N)CC1"
number = 43100


---

- procedureText: Plasma pharmacokinetics (LC-MS/MS)
- Format: in vivo, human
- conditions: human, plasma, oral, 500 mg, C1D1, 500 mg QD, n=10; read-out: T1/2, Median (Min, max) (converted)
metricName: half-life

[[record]]
compound = "CC1(N)CCN(c2cccnc2NC(=O)c2nc(-c3ncccc3C(F)(F)F)cnc2N)CC1 [LXS196]"
result = "10.1 h"


---

- procedureText: Plasma pharmacokinetics (LC-MS/MS)
- Format: in vivo, human
- conditions: human, plasma, oral, 500 mg, C1D1, 500 mg QD, n=10; read-out: Cmax, Mean (SD)
metricName: Cmax

[[record]]
molecule = "CC1(N)CCN(c2cccnc2NC(=O)c2nc(-c3ncccc3C(F)(F)F)cnc2N)CC1 [LXS196]"
metricname = "Cmax"
result = "4970 ng/mL"


---

- procedureText: Plasma pharmacokinetics (LC-MS/MS)
- Format: in vivo, human
- conditions: human, plasma, oral, 100 mg, C1D1, 100 mg QD, n=2; read-out: AUCinf, Geo-mean
metricName: AUC(0-inf) (ng·h/mL)

[[record]]
molecule = "CC1(N)CCN(c2cccnc2NC(=O)c2nc(-c3ncccc3C(F)(F)F)cnc2N)CC1 [LXS196]"
endpointunit = "ng·h/mL"
number = 8560


---

- procedureText: Plasma pharmacokinetics (LC-MS/MS)
- Assay type: in vivo, human
- conditions: human, plasma, oral, 200 mg, C1D15, 200 mg QD, n=3; read-out: Cmax, Geo-mean
metricName: Cmax (µg/mL)

[[record]]
entrysmiles = "CC1(N)CCN(c2cccnc2NC(=O)c2nc(-c3ncccc3C(F)(F)F)cnc2N)CC1"
metricname = "Cmax"
endpointunit = "µg/mL"
number = 2.49


---

- procedureText: Plasma pharmacokinetics (LC-MS/MS)
- Type: in vivo, human
- conditions: human, plasma, oral, 1000 mg, C1D15, 1000 mg QD, n=2; read-out: Cmin, Median (Min, max)
metricName: concentration at 15 day (ng/mL)

[[record]]
entrysmiles = "CC1(N)CCN(c2cccnc2NC(=O)c2nc(-c3ncccc3C(F)(F)F)cnc2N)CC1"
number = 674


---

- procedureText: Plasma pharmacokinetics (LC-MS/MS)
- Assay type: in vivo, human
- conditions: human, plasma, oral, 100 mg, C1D1, 100 mg QD, n=3; read-out: AUC0-t, Geo-mean
metricName: AUC(0-t) (ng·h/mL)

[[record]]
compound = "CC1(N)CCN(c2cccnc2NC(=O)c2nc(-c3ncccc3C(F)(F)F)cnc2N)CC1 [LXS196]"
metricname = "AUC(0-t)"
endpointunit = "ng·h/mL"
number = 8440


---

- procedureText: Plasma pharmacokinetics (LC-MS/MS)
- Assay type: in vivo, human
- conditions: human, plasma, oral, 1000 mg, C1D1, 1000 mg QD, n=4; read-out: AUC0-t, Median (Min, max)
metricName: AUC(0-t) (ng·h/mL)

[[record]]
entrysmiles = "CC1(N)CCN(c2cccnc2NC(=O)c2nc(-c3ncccc3C(F)(F)F)cnc2N)CC1"
endpointunit = "ng·h/mL"
number = 70100


---

- procedureText: Plasma pharmacokinetics (LC-MS/MS)
- Format: in vivo, human
- conditions: human, plasma, oral, fasting, 100–1000 mg QD and 200–400 mg BID; read-out: Tmax
metricName: Tmax

[[record]]
compound = "CC1(N)CCN(c2cccnc2NC(=O)c2nc(-c3ncccc3C(F)(F)F)cnc2N)CC1 [LXS196]"
metricname = "Tmax"
result = "~1 h"


---

- procedureText: Plasma pharmacokinetics (LC-MS/MS)
- Format: in vivo, human
- conditions: human, plasma, oral, 500 mg, C1D15, 500 mg QD, n=9; read-out: AUC0-t, Median (Min, max)
metricName: AUC(0-t)

[[record]]
compound = "CC1(N)CCN(c2cccnc2NC(=O)c2nc(-c3ncccc3C(F)(F)F)cnc2N)CC1 [LXS196]"
metricname = "AUC(0-t)"
result = "41700 ng·h/mL"


---

- procedureText: Plasma pharmacokinetics (LC-MS/MS)
- Assay type: in vivo, human
- conditions: human, plasma, oral, 300 mg, C1D1, 300 mg QD, n=15; read-out: Cmax, Median (Min, max)
metricName: Cmax

[[record]]
entrysmiles = "CC1(N)CCN(c2cccnc2NC(=O)c2nc(-c3ncccc3C(F)(F)F)cnc2N)CC1"
result = "5370 ng/mL"


---

- procedureText: Plasma pharmacokinetics (LC-MS/MS)
- Assay type: in vivo, human
- conditions: human, plasma, oral, 100 mg, C1D15, 100 mg QD, n=2; read-out: AUC0-t, Median (Min, max)
metricName: AUC(0-t) (ng·h/mL)

[[record]]
entrysmiles = "CC1(N)CCN(c2cccnc2NC(=O)c2nc(-c3ncccc3C(F)(F)F)cnc2N)CC1"
endpointunit = "ng·h/mL"
number = 10400


---

- procedureText: Plasma pharmacokinetics (LC-MS/MS)
- Assay type: in vivo, human
- conditions: human, plasma, oral, 400 mg, C1D15, 400 mg BID, n=4; read-out: Tmax, Median (Min, max)
metricName: Tmax

[[record]]
entrysmiles = "CC1(N)CCN(c2cccnc2NC(=O)c2nc(-c3ncccc3C(F)(F)F)cnc2N)CC1"
result = "50.5 min"


---

- procedureText: Plasma pharmacokinetics (LC-MS/MS)
- Format: in vivo, human
- conditions: human, plasma, oral, 100 mg, C1D1, 100 mg QD, n=3; read-out: AUC0-t, Median (Min, max)
metricName: AUC(0-t) (ng·h/mL)

[[record]]
entrysmiles = "CC1(N)CCN(c2cccnc2NC(=O)c2nc(-c3ncccc3C(F)(F)F)cnc2N)CC1"
endpointunit = "ng·h/mL"
number = 8020


---

- procedureText: Plasma pharmacokinetics (LC-MS/MS)
- Type: in vivo, human
- conditions: human, plasma, oral, 300 mg, C1D15, 300 mg BID, n=17; read-out: Cmax, Mean (SD)
metricName: Cmax (ng/mL)

[[record]]
compound = "CC1(N)CCN(c2cccnc2NC(=O)c2nc(-c3ncccc3C(F)(F)F)cnc2N)CC1 [LXS196]"
number = 2860


---

- procedureText: Plasma pharmacokinetics (LC-MS/MS)
- Assay type: in vivo, human
- conditions: human, plasma, oral, 100 mg, C1D1, 100 mg QD, n=2; read-out: AUCinf, Median (Min, max)
metricName: AUC(0-inf) (ng·h/mL)

[[record]]
entrysmiles = "CC1(N)CCN(c2cccnc2NC(=O)c2nc(-c3ncccc3C(F)(F)F)cnc2N)CC1"
metricname = "AUC(0-inf)"
number = 8640


---

- procedureText: Plasma pharmacokinetics (LC-MS/MS)
- Type: in vivo, human
- conditions: human, plasma, oral, 1000 mg, C1D15, 1000 mg QD, n=2; read-out: Tmax, Median (Min, max)
metricName: Tmax (min)

[[record]]
entrysmiles = "CC1(N)CCN(c2cccnc2NC(=O)c2nc(-c3ncccc3C(F)(F)F)cnc2N)CC1"
metricname = "Tmax"
number = 47.5


---

- procedureText: Plasma pharmacokinetics (LC-MS/MS)
- Format: in vivo, human
- conditions: human, plasma, oral, 800 mg, C1D1, 800 mg QD, n=1; read-out: AUC0-t, Median (Min, max)
metricName: AUC(0-t) (ng·h/mL)

[[record]]
molecule = "CC1(N)CCN(c2cccnc2NC(=O)c2nc(-c3ncccc3C(F)(F)F)cnc2N)CC1 [LXS196]"
metricname = "AUC(0-t)"
number = 54300


---

- procedureText: Plasma pharmacokinetics (LC-MS/MS)
- Type: in vivo, human
- conditions: human, plasma, oral, 1000 mg, C1D1, 1000 mg QD, n=4; read-out: Tmax, Median (Min, max)
metricName: Tmax (h)

[[record]]
entrysmiles = "CC1(N)CCN(c2cccnc2NC(=O)c2nc(-c3ncccc3C(F)(F)F)cnc2N)CC1"
metricname = "Tmax"
number = 2

